Reported %Inh by item:
- Test system: MELK;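 note: KINOMEscan kinase panel screen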
- test parameters: concentration: 1 μM,replicates: in singlicate; n = 1
State the value with its unit after it.

- smiles input: "CN(C)CCOc1ccc(-c2cc(-c3c[nH]nc3-c3ccccn3)ccn2)cc1"
  result: "11%"
- smiles input: "CNC(=O)c1ccccc1Sc1ccc2c(/C=C/c3ccccn3)n[nH]c2c1"
  result: "0%"
- smiles input: "NC(=O)c1cc(-c2ccccc2)cc2c(C3CCNCC3)c[nH]c12"
  result: "0%"
- smiles input: "CCN(CC)CCCCNc1ncc2cc(-c3c(Cl)cccc3Cl)c(NC(=O)NC(C)(C)C)nc2n1"
  result: "19%"
- smiles input: "C=CC(=O)Nc1cc2c(Nc3ccc(F)c(Cl)c3)ncnc2cc1OCCCN1CCOCC1"
  result: "28%"
- smiles input: "O=C(NCCNc1ccnc(NCc2ccc(F)cc2)n1)c1cc2ccccc2s1"
  result: "0%"
- smiles input: "Cc1cc2cn[nH]c2cc1-c1cccc2c(N)c(C(N)=O)nnc12"
  result: "5%"
- smiles input: "Cc1occc1-c1nc(N)c(OC[C@@H](N)Cc2c[nH]c3ccccc23)cc1-c1cc2c(C)n[nH]c2cn1"
  result: "35%"

Let's switch to this compound now.
Which %Inh is listed for `C[C@@H]1CCN(C(=O)CC#N)C[C@@H]1N(C)c1ncnc2[nH]ccc12` ? 23%
